Protocol: clinical
Condition summary: human, in vivo, po, 50 mg once daily
Observable: concentration at 11 days (nM)
Please give a number only; it is taken to be in nM.

input: Any idea what concentration at 11 days was measured for "CCN(CC)CCNC(=O)c1c(C)[nH]c(/C=C2\C(=O)Nc3ccc(F)cc32)c1C" ?
output: 111

----------
Protocol: clinical
Condition summary: human, in vivo, po, 50 mg once daily
Observable: concentration at 14 days (nM)
Answer with a number only, understood to be in nM.

input: Item "CCN(CC)CCNC(=O)c1c(C)[nH]c(/C=C2\C(=O)Nc3ccc(F)cc32)c1C" has what recorded concentration at 14 days?
output: 105

----------
Protocol: clinical
Condition summary: human, in vivo, po, 50 mg once daily
Observable: concentration at 13 days

input: Quick one: concentration at 13 days for "CCN(CC)CCNC(=O)c1c(C)[nH]c(/C=C2\C(=O)Nc3ccc(F)cc32)c1C" ?
output: 479 nM

----------
Test system: GBM cell lines
Protocol: cells
Assay type: cell-based
Condition summary: Homo sapiens, 72 h, read-out: Range of IC50 in GBM cell lines
pIC50: −log10 of the molar value.
Observable: pIC50

input: So what pIC50 did CCN(CC)CCNC(=O)c1c(C)[nH]c(/C=C2\C(=O)Nc3ccc(F)cc32)c1C [sunitinib] get with GBM cell lines?
output: 5.07 to 5.52

----------
Protocol: clinical
Condition summary: human, in vivo, po, 50 mg once daily
Observable: concentration at 12 days (nM)
Expressed in nM, but write only the number.

input: Sample "CCN(CC)CCNC(=O)c1c(C)[nH]c(/C=C2\C(=O)Nc3ccc(F)cc32)c1C" — what was its concentration at 12 days?
output: 255

All figures here come from paper PMC9365363.
